- method_description: MAD phase pharmacokinetics
- Assay type: in vivo, human
- run_parameters: human, plasma, oral, 10 mg, C trough, GeoMean, MAD 10 mg q.d., day 11
experimental_endpoint: concentration at 11 day (ng/mL)

{"molecule": "Fc1ccccc1Cc1nc(-c2nc(C(F)(F)F)n[nH]2)cn2ccnc12 [zagociguat]", "value_measured": 2760}

* * *

- method_description: MAD phase pharmacokinetics
- Assay type: in vivo, human
- run_parameters: human, plasma, oral, 5 mg, AUC τ, Median, MAD 5 mg q.d., day 14
experimental_endpoint: AUC (ng·h/mL)

{"compound": "Fc1ccccc1Cc1nc(-c2nc(C(F)(F)F)n[nH]2)cn2ccnc12 [zagociguat]", "experimental_endpoint": "AUC", "unit_spec": "ng·h/mL", "value_measured": 43900}

* * *

- method_description: MAD phase pharmacokinetics
- Assay type: in vivo, human
- run_parameters: human, plasma, oral, 5 mg, C trough, GeoMean, MAD 5 mg q.d., day 12

{"compound": "Fc1ccccc1Cc1nc(-c2nc(C(F)(F)F)n[nH]2)cn2ccnc12", "concentration at 12 day (ng/mL)": 1500}

* * *

- method_description: MAD phase pharmacokinetics
- Assay type: in vivo, human
- run_parameters: human, plasma, oral, 15 mg, T max, Median, MAD 15 mg q.d., day 1

{"molecule": "Fc1ccccc1Cc1nc(-c2nc(C(F)(F)F)n[nH]2)cn2ccnc12 [zagociguat]", "Tmax [h]": 3}

* * *

- method_description: MAD phase pharmacokinetics
- Type: in vivo, human
- run_parameters: human, plasma, oral, 15 mg, C max, Median, MAD 15 mg q.d., day 1
experimental_endpoint: Cmax (ng/mL)

{"compound": "Fc1ccccc1Cc1nc(-c2nc(C(F)(F)F)n[nH]2)cn2ccnc12", "unit_spec": "ng/mL", "value_measured": 1530}

* * *

- method_description: SAD phase pharmacokinetics
- Assay type: in vivo, human
- run_parameters: human, plasma, oral, 0.3 mg, AUClast, Median, SAD 0.3 mg

{"compound": "Fc1ccccc1Cc1nc(-c2nc(C(F)(F)F)n[nH]2)cn2ccnc12", "AUC(0-t), ng·h/mL": 1090}

* * *

- method_description: SAD phase pharmacokinetics
- Type: in vivo, human
- run_parameters: both, human, plasma, oral, 10 mg, AUCinf, GeoMean, SAD 10 mg

{"compound": "Fc1ccccc1Cc1nc(-c2nc(C(F)(F)F)n[nH]2)cn2ccnc12", "AUC(0-inf) (ng·h/mL)": 92300}

* * *

- method_description: SAD phase pharmacokinetics
- Assay type: in vivo, human
- run_parameters: human, plasma, oral, 20 mg, t 1/2, GeoMean, SAD 20 mg
experimental_endpoint: half-life (h)

{"compound": "Fc1ccccc1Cc1nc(-c2nc(C(F)(F)F)n[nH]2)cn2ccnc12", "experimental_endpoint": "half-life", "unit_spec": "h", "value_measured": 67.1}

* * *

- method_description: SAD phase pharmacokinetics
- Assay type: in vivo, human
- run_parameters: human, plasma, oral, 3 mg, C max, Median, SAD 3 mg

{"compound": "Fc1ccccc1Cc1nc(-c2nc(C(F)(F)F)n[nH]2)cn2ccnc12 [zagociguat]", "Cmax [ng/mL]": 372}

* * *

- method_description: SAD phase pharmacokinetics
- Type: in vivo, human
- run_parameters: human, plasma, oral, 1 mg, C max, GeoMean, SAD 1 mg

{"compound": "Fc1ccccc1Cc1nc(-c2nc(C(F)(F)F)n[nH]2)cn2ccnc12", "Cmax [ng/mL]": 142}

* * *

- method_description: SAD phase pharmacokinetics
- Assay type: in vivo, human
- run_parameters: human, plasma, oral, 50 mg, AUCinf, Median, SAD 50 mg
experimental_endpoint: AUC(0-inf) (µg·h/mL)

{"compound": "Fc1ccccc1Cc1nc(-c2nc(C(F)(F)F)n[nH]2)cn2ccnc12", "value_measured": 471}

* * *

- method_description: MAD phase pharmacokinetics
- Assay type: in vivo, human
- run_parameters: human, plasma, oral, 5 mg, C trough, Median, MAD 5 mg q.d., day 14

{"compound": "Fc1ccccc1Cc1nc(-c2nc(C(F)(F)F)n[nH]2)cn2ccnc12 [zagociguat]", "concentration at 14 day (ng/mL)": 1640}

* * *

- method_description: MAD phase pharmacokinetics
- Format: in vivo, human
- run_parameters: human, plasma, oral, Median observed T max, range, MAD all doses, days 1 and 14
experimental_endpoint: Tmax

{"compound": "Fc1ccccc1Cc1nc(-c2nc(C(F)(F)F)n[nH]2)cn2ccnc12", "value_measured": "1 to 3.5 h"}

* * *

- method_description: MAD phase pharmacokinetics
- Type: in vivo, human
- run_parameters: human, plasma, oral, 15 mg, C max, GeoMean, MAD 15 mg q.d., day 1
experimental_endpoint: Cmax (ng/mL)

{"compound": "Fc1ccccc1Cc1nc(-c2nc(C(F)(F)F)n[nH]2)cn2ccnc12", "experimental_endpoint": "Cmax", "unit_spec": "ng/mL", "value_measured": 1620}

* * *

- method_description: MAD phase pharmacokinetics
- Assay type: in vivo, human
- run_parameters: human, plasma, oral, 10 mg, AUC τ, GeoMean, MAD 10 mg q.d., day 14
experimental_endpoint: AUC (ng·h/mL)

{"compound": "Fc1ccccc1Cc1nc(-c2nc(C(F)(F)F)n[nH]2)cn2ccnc12 [zagociguat]", "experimental_endpoint": "AUC", "value_measured": 76800}

* * *

- method_description: SAD phase pharmacokinetics
- Assay type: in vivo, human
- run_parameters: human, plasma, oral, 20 mg, AUCinf, Median, SAD 20 mg
experimental_endpoint: AUC(0-inf)

{"compound": "Fc1ccccc1Cc1nc(-c2nc(C(F)(F)F)n[nH]2)cn2ccnc12", "value_measured": "180 µg·h/mL"}

* * *

- method_description: SAD phase pharmacokinetics
- Type: in vivo, human
- run_parameters: human, plasma, oral, 30 mg, C max, GeoMean, SAD 30 mg
experimental_endpoint: Cmax (ng/mL)

{"compound": "Fc1ccccc1Cc1nc(-c2nc(C(F)(F)F)n[nH]2)cn2ccnc12 [zagociguat]", "experimental_endpoint": "Cmax", "unit_spec": "ng/mL", "value_measured": 3370}

* * *

- method_description: SAD phase pharmacokinetics
- Format: in vivo, human
- run_parameters: human, plasma, oral, 30 mg, AUCinf, Median, SAD 30 mg
experimental_endpoint: AUC(0-inf)

{"compound": "Fc1ccccc1Cc1nc(-c2nc(C(F)(F)F)n[nH]2)cn2ccnc12", "value_measured": "288 µg·h/mL"}

* * *

- method_description: SAD phase pharmacokinetics
- Type: in vivo, human
- run_parameters: human, plasma, oral, 50 mg, AUClast, GeoMean, SAD 50 mg

{"compound": "Fc1ccccc1Cc1nc(-c2nc(C(F)(F)F)n[nH]2)cn2ccnc12", "AUC(0-t) / µg·h/mL": 425}

* * *

- method_description: MAD phase pharmacokinetics
- Format: in vivo, human
- run_parameters: human, plasma, oral, 5 mg, C trough, GeoMean, MAD 5 mg q.d., day 11
experimental_endpoint: concentration at 11 day (ng/mL)

{"compound": "Fc1ccccc1Cc1nc(-c2nc(C(F)(F)F)n[nH]2)cn2ccnc12", "experimental_endpoint": "concentration at 11 day", "value_measured": 1480}

* * *

- method_description: SAD phase pharmacokinetics
- Format: in vivo, human
- run_parameters: human, plasma, oral, 30 mg, AUClast, GeoMean, SAD 30 mg

{"compound": "Fc1ccccc1Cc1nc(-c2nc(C(F)(F)F)n[nH]2)cn2ccnc12", "AUC(0-t) [µg·h/mL]": 251}

* * *

- method_description: MAD phase pharmacokinetics
- Assay type: in vivo, human
- run_parameters: both, human, plasma, oral, 2 mg, AUC τ, GeoMean, MAD 2 mg q.d., day 14
experimental_endpoint: AUC (ng·h/mL)

{"compound": "Fc1ccccc1Cc1nc(-c2nc(C(F)(F)F)n[nH]2)cn2ccnc12 [zagociguat]", "experimental_endpoint": "AUC", "value_measured": 16900}

* * *

- method_description: MAD phase pharmacokinetics
- Assay type: in vivo, human
- run_parameters: human, plasma, oral, 5 mg, C max, Median, MAD 5 mg q.d., day 1
experimental_endpoint: Cmax (ng/mL)

{"compound": "Fc1ccccc1Cc1nc(-c2nc(C(F)(F)F)n[nH]2)cn2ccnc12", "experimental_endpoint": "Cmax", "value_measured": 597}

* * *

- method_description: SAD phase pharmacokinetics
- Format: in vivo, human
- run_parameters: human, plasma, oral, 50 mg, C max, Median, SAD 50 mg

{"compound": "Fc1ccccc1Cc1nc(-c2nc(C(F)(F)F)n[nH]2)cn2ccnc12", "unit_spec": "ng/mL", "Cmax": 5820}

* * *

- method_description: SAD phase pharmacokinetics
- Assay type: in vivo, human
- run_parameters: human, plasma, oral, 30 mg, C max, Median, SAD 30 mg
experimental_endpoint: Cmax (ng/mL)

{"compound": "Fc1ccccc1Cc1nc(-c2nc(C(F)(F)F)n[nH]2)cn2ccnc12", "value_measured": 3650}
